Molecular target: human H4 receptor (Homo sapiens)
Construct: expressed in transfected cells
Sequence (Q9H3N8 whole entry): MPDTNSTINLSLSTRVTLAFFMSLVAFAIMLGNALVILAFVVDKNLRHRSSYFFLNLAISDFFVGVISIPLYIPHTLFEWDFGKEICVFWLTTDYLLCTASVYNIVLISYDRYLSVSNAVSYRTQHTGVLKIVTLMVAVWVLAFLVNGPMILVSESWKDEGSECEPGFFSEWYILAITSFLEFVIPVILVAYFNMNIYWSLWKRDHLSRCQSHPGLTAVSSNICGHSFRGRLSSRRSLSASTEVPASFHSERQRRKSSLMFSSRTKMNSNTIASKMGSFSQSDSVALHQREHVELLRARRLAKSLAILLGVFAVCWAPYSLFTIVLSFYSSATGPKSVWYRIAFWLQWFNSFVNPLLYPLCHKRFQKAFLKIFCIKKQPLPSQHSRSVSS
Assay: [3H]Histamine binding on membranes of CHO cells stably expressing human H4 receptor
A collection of molecules and their measured Ki or IC50 activity class

CCCc1ccc(O)c(C(OC2CCN(C)CC2)c2nc3ccccc3[nH]2)c1 (stereo not drawn) [Example 591] = < 300 nM
CN1CCC(OC(c2cccc(OCCCC(F)(F)F)c2)c2nc3ccccc3s2)CC1 (stereo not drawn) [Example 169] = < 1000 nM
COc1cccc(C(OC2CCN(C)CC2)c2nc3ccccc3[nH]2)c1 (stereo not drawn) [Example 542] = < 30 nM
CN1CCC(OC(c2nc3ccccc3[nH]2)c2cc(-c3ccccc3)ccc2O)CC1 (stereo not drawn) [Example 589] = < 1000 nM
CCCCCOc1cccc(C(NC2CCN(C)CC2)c2nc3ccccc3[nH]2)c1 (stereo not drawn) [Example 95] = < 30 nM
CN1CCC(OC(c2cccc(OCCF)c2)c2nc3ccccc3s2)CC1 (stereo not drawn) [Example 163] = < 30 nM
CN1CCC(OC(c2cccc(OCc3cccc(F)c3F)c2)c2nc3ccccc3s2)CC1 (stereo not drawn) [Example 161] = < 30 nM
CN1CCC(OC(c2nc3ccccc3[nH]2)c2cc(O)ccc2O)CC1 (stereo not drawn) [Example 618] = < 30 nM

Attention now turns to another entry.
// query Give a short answer stating reported Ki or IC50 activity class for CN1CCC(OC(c2cccc(N)c2)c2nc3ccccc3[nH]2)CC1 (stereo not drawn) [Example 224] .
// result < 300 nM
